Parameter z-score: see the listing below.
experimentalProtocol: PSAC antagonists in infected red cells, primary screen, cell-based, P. falciparum Indochina, OD700, 18 h (AID 1157)
appliedConditions: P. falciparum Indochina infected erythrocytes, osmotic lysis OD700, 18 h; higher = more signal, called active from +8 up or from −8 down
Activity calls are given as the source filed them.

compound=COC(=O)CC=C[C@@H](C)[C@@H](C=NOCC[C@@H]1C=C[C@H](OC(C)=O)[C@@H](COC(C)=O)O1)NS(=O)(=O)c1ccc(C)cc1 reportedproperty=z-score valueobserved="0.196 (inactive)"
compound=CCOC(=O)NN=C1C[C@@H](O)[C@@H](O)[C@@H]2[C@@H]3C(=O)N(c4cccc(Oc5ccccc5)c4)C(=O)[C@@H]3CC[C@@H]12 reportedproperty=z-score valueobserved="0.233 (inactive)"
compound=CC(CCN1CCCCc2nc(C)c(C)cc21)=NOC[C@@H](C)[C@H](OCc1ccccc1)C(C)C reportedproperty=z-score valueobserved="-1.99 (inactive)"

# input I'd like to know its z-score. The compound in question is COC(=O)[C@H](C)NC(=O)CCC1CC(OC(=O)NCc2ccc3c(c2)OCO3)CC2(CCCC(COC(=O)NCCc3ccccc3OC)O2)O1 (some centres undefined)
# output 0.566 (inactive)

====

experimentalProtocol: binders of probe aFGF2 on microarray, primary screen, stem cell growth factor project, biochemical, small-molecule microarray, fluorescence 635/667 (AID 1067);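 note: measures binding of biotinylated aFGF2 protein to printed compounds on slides; z-score merges feature fluorescence and signal-to-noise across triplicate slides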
appliedConditions: higher = more signal
Tick 1 if composite z-score is -0.1 or greater. Tick 0 if composite z-score is less than -0.1.

Some solved entries appear below for comparison.
smilestext=Cc1ccc(S(=O)(=O)N[C@H]2COC(=O)CC=C[C@@H](C)COC(=O)CC=C[C@@H]2C)cc1 qualitativelabel=0
smilestext=CCO[C@H](c1cc(OC)cc([N+](=O)[O-])c1OC)[C@H](C)C=CCC(=O)OC qualitativelabel=0
smilestext=O=C1[C@H]2[C@H]3[C@H](O)[C@H](O)CC(=NOC[C@@H](O)COCc4ccco4)[C@@H]3CC[C@H]2C(=O)N1C[C@@H]1CCCO1 qualitativelabel=0
smilestext=COC(=O)CC=C[C@@H](C)[C@@H](C=NOC[C@@H](O)[C@H]1O[C@@H]2OC(C)(C)O[C@@H]2[C@H]1O)NS(=O)(=O)c1ccc(C)cc1 qualitativelabel=0
smilestext=COC(=O)CC=C[C@@H](C)[C@@H](C=NOCC[C@@H]1C=C[C@H](OC(C)=O)[C@@H](COC(C)=O)O1)OC qualitativelabel=1
smilestext=CCN1C(=O)[C@H]2[C@H]3[C@H](O)[C@H](O)CC(=O)[C@H]3CC[C@H]2C1=O qualitativelabel=1

# input Textbook exercise: given the entry C[C@@H](c1ccccc1)N1C(=O)[C@H]2[C@H]3[C@H](O)[C@H](O)CC(=O)[C@H]3CC[C@H]2C1=O , state whether its composite z-score is greater than or equal to -0.1.
# output 1

====

experimentalProtocol: HepG2 liver cancer cell viability effects, profiling panel, resazurin fluorescence, 24 h, PK04 Diversity Set (AID 1172); note: test concentration not given here
appliedConditions: higher = more signal
reportedProperty: z-score
Form: value (number only, do not type unit).

smilestext=CC(C)=CCCC(C)=CCON=C1C[C@@H](O)[C@@H](O)[C@@H]2[C@@H]3C(=O)N(Cc4ccccc4)C(=O)[C@@H]3CC[C@@H]12 valueobserved=1.42

# input I'd like to know its z-score. The compound in question is COc1cc(O)c(C(=O)C=Cc2ccc3c(c2)OCO3)c(OC)c1
# output 0.0215

# input I'd like to know its z-score. The compound in question is COC(=O)[C@@H]1CC[C@H](C)[C@@H](c2ccc(C)cc2)N1C(=O)c1ccc(C=NO[C@H](C)c2cn([C@@H]3COC[C@H]3O)nn2)cc1
# output -0.324

# input I'd like to know its z-score. The compound in question is CCOC(=O)CCN1C(=O)[C@H]2[C@H]3[C@H](O)[C@H](O)CC(=NOCC(C)C)[C@H]3CC[C@H]2C1=O
# output -0.823

====

experimentalProtocol: E. coli acrAB mutant growth effects, primary screen, E. coli filamentation inducers, strain DRC39, OD650, 48 h (AID 1179);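 note: screen aims at cell division blockers that make cells filament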
appliedConditions: E. coli DRC39 delta-acrAB growth, higher = more signal, called active from +8 up or from −8 down
Tick met if z-score is -0.3 or greater. Tick not met if z-score is less than -0.3.

Some solved entries appear below for comparison.
compound=CCc1cc2c(nc1CC)CCN(CCC(C)=NOC[C@H]1O[C@H](c3ccccc3)C=C[C@@H]1Oc1ccc(OC)cc1)C2 qualitativelabel="not met"
compound=CCc1cc2c(nc1CC)CCN(CCC(C)=NO[C@H](C)c1cn([C@@H]3COC[C@H]3O)nn1)C2 qualitativelabel=met
compound=C=CC[C@@H]1C=C[C@H](ON=C(C)CCN2CCc3nc(-c4ccccc4)c(-c4ccccc4)cc3C2)[C@@H](CO)O1 qualitativelabel=met
compound=C[C@@H](c1ccccc1)N1C(=O)[C@H]2[C@H]3[C@H](O)[C@H](O)CC(=O)[C@H]3CC[C@H]2C1=O qualitativelabel=met

Next item in the queue.
# input Textbook exercise: given the entry CC(C)(C)N1C(=O)[C@H]2[C@H]3[C@H](O)[C@H](O)CC(=NOCc4ccccc4)[C@H]3CC[C@H]2C1=O , state whether its z-score is greater than or equal to -0.3.
# output met

====

Parameter z-score: see the listing below.
experimentalProtocol: S. cerevisiae growth modulation with rapamycin, primary screen, strain BY4716, OD600, 96 h (AID 1091); note: test concentration not given here
appliedConditions: higher = more signal, called active from +8 up or from −8 down
Form: value (number only, do not type unit).

Example cases with answers are listed next.
compound=COC(=O)CC=C[C@@H](C)[C@@H](C=NO[C@@H](C)c1cn([C@H](CO)Cc2ccccc2)nn1)NS(=O)(=O)c1ccc(C)cc1 reportedproperty=z-score valueobserved=-0.88
compound=CCOC(=O)NN=C1C[C@@H](O)[C@@H](O)[C@@H]2[C@@H]3C(=O)N([C@@H](C)c4ccccc4)C(=O)[C@@H]3CC[C@H]12 reportedproperty=z-score valueobserved=-0.222
compound=CCCCC#C[C@@H]1C=C[C@H](Oc2cc(OC)c(OC)c(OC)c2)[C@@H](COC(=O)OCC)O1 reportedproperty=z-score valueobserved=0.398

# input I'd like to know its z-score. The compound in question is CC(=O)OC[C@H]1O[C@@H](ON=C(C)CCN2CCCc3nc(C)c(C)cc32)[C@H](OC(C)=O)[C@@H](OC(C)=O)[C@@H]1OC(C)=O
# output 0.427

# input I'd like to know its z-score. The compound in question is COc1ccc(O[C@@H]2[C@H](O)CO[C@@H]2C=Cc2ccccc2)cc1
# output 0.0945

# input I'd like to know its z-score. The compound in question is CO[C@H]1COC(=O)CC=C[C@H](C)[C@@H](OC)COC(=O)[C@H](C)COC(=O)CC=C[C@@H]1C
# output 0.567

# input I'd like to know its z-score. The compound in question is CCOC(=O)[C@H](CC(C)C)NC(=O)CCC1CC(OC(=O)NCc2cccc3ccccc23)CC2(CCCC(COC(=O)NCC3CCCCC3)O2)O1 (some centres not stated)
# output 0.0127

====

experimentalProtocol: modulators of S6 phosphorylation in cells, primary screen, cell-based, A549, cytoblot, luminescence, serum-stimulated (AID 1158);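 note: serum-stimulated A549 lung adenocarcinoma cells; signal is phosphorylated S6 detected by cytoblot immunostaining with HRP secondary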
appliedConditions: A549 phospho-S6 cytoblot, 5 h, higher = more signal
reportedProperty: z-score
Form: value (number only, do not type unit).

Example cases with answers are listed next.
compound="COc1ccc(O[C@H]2C=C[C@@H](c3ccccc3)O[C@@H]2COC(=O)CCC(C)=NOC(C)CN2CCCc3nc(C)c(C)cc32)cc1 (stereo not given in full)" reportedproperty=z-score valueobserved=-0.314
compound="CCOC(=O)[C@H](CC(C)C)NC(=O)CCC1CC(OC(=O)NCCc2ccc(F)cc2)CC2(CCCC(COC(=O)NCCc3ccccc3OC)O2)O1 (stereo not given in full)" reportedproperty=z-score valueobserved=-0.0491
compound=C[C@@H](ON=C1[C@H]2CCn3c(=O)n(-c4ccccc4)c(=O)n3[C@H]2[C@H](O)[C@@H]2O[C@H]12)c1cn([C@@H]2COC[C@H]2O)nn1 reportedproperty=z-score valueobserved=-0.574

# input I'd like to know its z-score. The compound in question is C#CCCCON=C1C[C@@H](O)[C@@H](O)[C@@H]2[C@@H]3C(=O)N(C(C)(C)C)C(=O)[C@@H]3CC[C@@H]12
# output 0.929

# input I'd like to know its z-score. The compound in question is CCOC(=O)[C@H](CC(C)C)NC(=O)CCC1CC(OC(=O)NCCc2ccc(F)cc2)CC2(CCCC(COC(=O)NCCC(C)C)O2)O1 (stereo not given in full)
# output -0.326

# input I'd like to know its z-score. The compound in question is CCOC(=O)NN=C1C[C@@H](O)[C@@H](O)[C@@H]2[C@@H]3C(=O)N(c4cccc(Oc5ccccc5)c4)C(=O)[C@@H]3CC[C@H]12
# output 0.742

# input I'd like to know its z-score. The compound in question is COC(=O)CC=C[C@@H](C)[C@@H](C=NO[C@H](C)c1cn([C@H](CO)Cc2ccccc2)nn1)OC
# output -0.505

# input I'd like to know its z-score. The compound in question is O=C1[C@H]2[C@H]3[C@H](O)[C@H](O)CC(=NOC[C@@H](O)COCc4ccco4)[C@H]3CC[C@H]2C(=O)N1C[C@@H]1CCCO1
# output -0.637

# input I'd like to know its z-score. The compound in question is CO[C@H](C1CCCCC1)[C@H](C)C=CCC(=O)OCCCc1ccccc1
# output -0.285

# input I'd like to know its z-score. The compound in question is COC(=O)CC=C[C@@H](C)[C@@H](C=NO[C@H](C)c1cn([C@H](CO)Cc2ccccc2)nn1)NS(=O)(=O)c1ccc(C)cc1
# output -1.07

# input I'd like to know its z-score. The compound in question is CCOC(=O)[C@H](CC(C)C)NC(=O)CCC1CC(OC(=O)NCc2cccc3ccccc23)CC2(CCCC(COC(=O)NCC3CCCCC3)O2)O1 (stereo not given in full)
# output 1.64

# input I'd like to know its z-score. The compound in question is C[C@@H](c1ccccc1)N1C(=O)[C@H]2[C@H]3[C@H](O)[C@H](O)CC(=NO[C@@H]4O[C@H](CO)[C@@H](O)[C@H](O)[C@H]4O)[C@@H]3CC[C@H]2C1=O
# output -0.689

# input I'd like to know its z-score. The compound in question is CCOC(=O)[C@H](Cc1ccccc1)NC(=O)CCC1CC(OC(=O)NCc2cccc3ccccc23)CC2(CCCC(COC(=O)NCc3ccccc3)O2)O1 (stereo not given in full)
# output 3.91

# input I'd like to know its z-score. The compound in question is COC(=O)NCC=Cc1nc(CCCO)co1
# output -0.726

# input I'd like to know its z-score. The compound in question is O=C1C[C@@H](O)[C@@H](O)[C@@H]2[C@@H]3C(=O)N(C[C@@H]4CCCO4)C(=O)[C@@H]3CC[C@H]12
# output -0.0289
